TARGET ENTITY: adenosine A2 receptor (Rattus norvegicus)
Construct: from tissue
TEST NAME: In vitro binding to adenosine A2 receptor, radioligand [3H]-CGS 21680
TEST READOUT: pKi
pKi here: minus log base 10 of the concentration, concentration in moles per litre.

Recorded result, OC[C@H]1O[C@@H](n2cnc3c(NC4CCCC4)ncnc32)[C@H](O)[C@@H]1O [CPA, N-(cyclopentyl)adenosine, reference compound] , pKi: 6.76

---

TARGET ENTITY: adenosine A2 receptor (Rattus norvegicus, UniProt P30543)
Construct: from tissue
Sequence (P30543 whole entry): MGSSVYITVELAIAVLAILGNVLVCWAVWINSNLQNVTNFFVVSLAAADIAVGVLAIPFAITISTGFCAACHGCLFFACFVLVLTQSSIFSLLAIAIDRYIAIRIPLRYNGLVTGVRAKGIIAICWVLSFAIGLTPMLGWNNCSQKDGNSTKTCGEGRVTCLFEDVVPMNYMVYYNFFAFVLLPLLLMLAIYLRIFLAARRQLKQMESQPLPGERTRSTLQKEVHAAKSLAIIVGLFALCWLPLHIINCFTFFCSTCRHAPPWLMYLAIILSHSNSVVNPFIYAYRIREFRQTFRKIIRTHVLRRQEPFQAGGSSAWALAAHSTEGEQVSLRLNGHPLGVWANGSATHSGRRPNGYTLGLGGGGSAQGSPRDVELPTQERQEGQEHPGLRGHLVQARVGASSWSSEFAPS
TEST NAME: In vitro binding to adenosine A2 receptor, radioligand [3H]-CGS 21680
REPORTED CONDITIONS: [3H]-CGS 21680 radioligand; read-out: A2 Receptor Binding (Ki)
TEST READOUT: pKi
# pKi: negative log10 of molar concentration; output just the value

# count of solved cases: 3
| COMPOUND | TARGET ENTITY | RECORDED MEASUREMENT |
| --- | --- | --- |
| OC[C@H]1O[C@@H](n2cnc3c(NN4CCC(Oc5ccccc5)CC4)nc(Cl)nc32)[C@H](O)[C@@H]1O [Example 17] | adenosine A2 receptor (Rattus norvegicus, UniProt P30543) | 5.92 |
| OC[C@H]1O[C@@H](n2cnc3c(NN4CCCC(Oc5ccccc5)C4)nc(Cl)nc32)[C@H](O)[C@@H]1O (stereo partly shown) [Example 16] | adenosine A2 receptor (Rattus norvegicus, UniProt P30543) | 5.76 |
| OC[C@H]1O[C@@H](n2cnc3c(NN4CCCCC4)nc(F)nc32)[C@H](O)[C@@H]1O [Example 9, 2-Fluoro-N-(1-piperidinyl)adenosine] | adenosine A2 receptor (Rattus norvegicus, UniProt P30543) | 5.94 |

The reported value for OC[C@H]1O[C@@H](n2cnc3c(NN4CCCCC4)nc(Cl)nc32)[C@H](O)[C@@H]1O [Example 5, 2-Chloro-N-(1-piperidinyl)adenosine] in terms of pKi is 6.16

---

TARGET ENTITY: adenosine A1 receptor (Rattus norvegicus)
Construct: from tissue
Sequence (P25099 whole entry): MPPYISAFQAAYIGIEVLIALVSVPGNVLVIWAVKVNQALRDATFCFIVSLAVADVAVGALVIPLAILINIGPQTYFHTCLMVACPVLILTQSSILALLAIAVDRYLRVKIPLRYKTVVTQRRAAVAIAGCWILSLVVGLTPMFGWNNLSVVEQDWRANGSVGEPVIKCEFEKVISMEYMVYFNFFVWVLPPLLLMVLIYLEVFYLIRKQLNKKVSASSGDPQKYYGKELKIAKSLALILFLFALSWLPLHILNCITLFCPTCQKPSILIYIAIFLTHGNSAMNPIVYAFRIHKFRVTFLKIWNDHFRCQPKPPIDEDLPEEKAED
TEST NAME: In vitro binding to adenosine A1 receptor, radioligand [3H]-L-PIA
REPORTED CONDITIONS: [3H]-L-PIA radioligand
TEST READOUT: pKi
On this scale, pKi is minus log10 of a concentration expressed in M (mol/L).

Record "OC[C@H]1O[C@@H](n2cnc3c(NN4CCCCC4)nc(Cl)nc32)[C@H](O)[C@@H]1O" . Reported pKi: 8.40
